Reported apparent KD of MS2 coat protein values for a set of sequences
# System: MS2 coat protein
# run-description: apparent KD of MS2 coat protein, switch OFF state (with FMN for OFF switches, without FMN for ON switches); designed switch direction (-1 OFF switch, 1 ON switch): 1; higher = weaker reporter binding
# measurement-parameters: FMN input: 0 or 200 uM; Eterna round: R93 (includes R88 designs)
Give the value, in units of nM, as a plain number.

Look over these answered cases.
biopolymer-sequence: UAGAGGAAGAGAGAGGAUAUCCAAAGGAAAACAUGAGGAUCACCCAUGUAAAAGGUAGGAAAUUGGGAGAAGGCUCAAGAGAGAG [salish99-ss2-062]
target-desc: MS2 coat protein
assay-value: 30.3
--
biopolymer-sequence: AAAAAAAAAAGGCAGGAUAUCCAAAAAAAAACAUGAGGAUCACCCAUGUAAAAAAAAAAAAAAUGGGAGAAGGGCCAAAAAAAAAA [Mat - Mod of Eli]
target-desc: MS2 coat protein
assay-value: 46.3
--
biopolymer-sequence: CGUGAACAUGAGGAUCACCCAUGUGAAAAACAUAGAGGAUAUGUCACAUGAGUGUAAAAGACAGAAGGCUAUCGUG [Mod 1 of Round 1 starryjess' Mod pf Nando]
target-desc: MS2 coat protein
assay-value: 152

Problem: Fill blank: measured apparent KD of MS2 coat protein of the sequence AGGAGACAUGAGGAUCACCCAUGUGAGAAGAGGCGAGGAUAUCGAAAGAAAGAAGAGAAACGAGAAGGCGCGAGUG [salish99-SS1-026] is ____.
Solution: 40.9

Problem: Fill blank: measured apparent KD of MS2 coat protein of the sequence UACAGACAUGAGGAUCACCCAUGUAGAAUUAUGGGAGGAUAUACAAAGACGAGAGUCAGAGUAGAAGGCCUAGGAU [salish99-ss1-164] is ____.
Solution: 61.3

Problem: Fill blank: measured apparent KD of MS2 coat protein of the sequence AACAAUCUAUCUGAGGAUAUCAUUUCAAAGACAUGAGGAUCACCCAUGUCCAGGAAAACUGGAAAUGAGAAGGCAGAUAGAUUGA [SS2: 1106] is ____.
Solution: 9.31

Problem: Fill blank: measured apparent KD of MS2 coat protein of the sequence AAAUAACAUGAGGAUCACCCAUGUUGCAGCGGUUGAGGAUAUGUGGGUGAAAAUAGCAUGGCAGAAGGCGAGUGUA [SameState1 Malc#26] is ____.
Solution: 71.9

* * *

# Test system: MS2 coat protein
# run-description: apparent KD of MS2 coat protein; designed switch direction (-1 OFF switch, 1 ON switch): -1; higher = weaker reporter binding
# measurement-parameters: input ligand: FMN 200 uM
Reported apparent KD of MS2 coat protein values for a set of sequences
Give the value, in units of nM, as a plain number.

Look over these answered cases.
biopolymer-sequence: UAUUAGCAAGCGAGAUCCCACAUGAGGAUCACCCAUGUGCUCGUCUUAUAAAAGACUGUGACGAUAGUCACGGUCAC [Mat - Sensor, turn-off var - Eli Mod - D22] (Eterna round: R97, puzzle: Sensor, turn-off variant 1)
target-desc: MS2 coat protein
assay-value: 14.2
--
biopolymer-sequence: UAGCAUUGCCUUUGGUAGUGCUUUACAUGAGGAUCACCCAUGUAGGAUAUGGUAGGCAAAGCUUACCAGAAGGACAUGAUAAUU [Mat - Exclusion NG 3 - Mod of JL - D11] (Eterna round: R96, puzzle: Exclusion NG 3)
target-desc: MS2 coat protein
assay-value: 198
--
biopolymer-sequence: GUCAGCUCGUGAGGAUAUAUAUACAUGAGGAUCACCCAUGUAAGAUCAGCACUUCGGUGCAGUAUAUAGAAGGCACGAGCUGAC [ENG2/13-A1] (Eterna round: R96, puzzle: Exclusion NG 2)
target-desc: MS2 coat protein
assay-value: 46.1
--
biopolymer-sequence: UCCUCACAUGAGGAUCACCCAUGUUAGGAUAUCUUAGAGCGCGAAUGACAGUUCUUUAAGAGAAGGAACUGGGC [Exclusion 1 (MOD1.2 of Edarti)] (Eterna round: R97, puzzle: Exclusion 1)
target-desc: MS2 coat protein
assay-value: 50.5
--
biopolymer-sequence: ACAUGAGGAUCACCCAUGUCCGGCUGGUCUGUCUCGGCUGUCGAGGAUAUAGCUCGGUAUCCGCGCUAGAAGGCGGGAGCCGGU [Aenatbe mod 91] (Eterna round: R96, puzzle: Exclusion NG 3)
target-desc: MS2 coat protein
assay-value: 76.7
--
biopolymer-sequence: GCGGACAAGAUCGUGAGAUCAGAGACAUGAGGAUCACCCAUGUAGGAUAUCGAUUCGAAACGAAUCGAGAAGGGCAUAGUCCGC [JL denovo 6] (Eterna round: R96, puzzle: Exclusion NG 3)
target-desc: MS2 coat protein
assay-value: 20.5

Problem: Fill blank: measured apparent KD of MS2 coat protein of the sequence UUUCUACAUGUAGGAUAUGCGUGGCGAAGCUAUGCAGAAGGACAUGAGGAUCACCCAUGUUUUAGCGUCUGCGUACAGAUGCGU [JL ENG1 1.49] (Eterna round: R96, puzzle: Exclusion NG 1) is ____.
Solution: 60.9

Problem: Fill blank: measured apparent KD of MS2 coat protein of the sequence ACAUGACCGCUAGGAUAUAGAUGACAUGAGGAUCACCCAUGUUGUCCCAUGUUGACGAUCACCGACUAGAAGGAGCCACCCAUG [ExNG2 5th] (Eterna round: R96, puzzle: Exclusion NG 2) is ____.
Solution: 53.4
